molecular target: UniProt Q12809; experiment: Inhibition of human ERG at 10 uM by patch clamp assay
Sequence (Q12809 whole entry): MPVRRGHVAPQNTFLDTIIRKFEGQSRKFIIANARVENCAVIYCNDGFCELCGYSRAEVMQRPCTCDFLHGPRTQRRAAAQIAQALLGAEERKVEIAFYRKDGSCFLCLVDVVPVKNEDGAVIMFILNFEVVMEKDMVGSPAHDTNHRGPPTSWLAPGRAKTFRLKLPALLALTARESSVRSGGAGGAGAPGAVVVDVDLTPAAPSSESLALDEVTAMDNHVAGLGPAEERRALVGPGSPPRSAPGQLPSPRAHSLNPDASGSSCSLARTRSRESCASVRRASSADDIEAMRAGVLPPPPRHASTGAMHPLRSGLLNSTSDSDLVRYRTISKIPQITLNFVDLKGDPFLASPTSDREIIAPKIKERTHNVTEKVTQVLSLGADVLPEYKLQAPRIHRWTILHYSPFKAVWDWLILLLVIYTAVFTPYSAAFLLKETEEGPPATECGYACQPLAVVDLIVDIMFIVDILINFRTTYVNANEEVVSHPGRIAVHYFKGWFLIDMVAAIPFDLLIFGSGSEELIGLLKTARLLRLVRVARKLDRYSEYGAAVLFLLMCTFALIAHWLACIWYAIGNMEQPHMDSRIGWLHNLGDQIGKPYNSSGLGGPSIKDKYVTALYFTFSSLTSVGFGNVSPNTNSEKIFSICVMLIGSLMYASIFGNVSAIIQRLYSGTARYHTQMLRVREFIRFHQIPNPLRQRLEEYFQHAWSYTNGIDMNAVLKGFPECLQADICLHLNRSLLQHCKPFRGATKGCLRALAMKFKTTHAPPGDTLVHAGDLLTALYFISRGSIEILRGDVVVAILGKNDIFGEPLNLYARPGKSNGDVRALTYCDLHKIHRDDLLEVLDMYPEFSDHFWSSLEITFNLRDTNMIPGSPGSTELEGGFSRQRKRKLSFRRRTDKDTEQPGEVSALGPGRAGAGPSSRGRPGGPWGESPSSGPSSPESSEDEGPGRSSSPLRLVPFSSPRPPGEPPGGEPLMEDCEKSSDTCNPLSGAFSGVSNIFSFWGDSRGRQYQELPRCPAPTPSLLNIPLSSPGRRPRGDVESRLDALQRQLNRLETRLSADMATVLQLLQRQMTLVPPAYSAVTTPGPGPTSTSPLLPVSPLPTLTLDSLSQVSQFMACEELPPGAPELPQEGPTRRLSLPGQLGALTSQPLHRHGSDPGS
property name: inhibition at 10 µM (%)
Give the number; % is assumed, so skip it.

CCN(Cc1cc(C(F)(F)F)ccc1-c1cc(CC(=O)O)ccc1OC)C(=O)OCc1ccc(Cl)cc1: 22

Query: Quick one: inhibition at 10 µM of CCN(Cc1cc(C(F)(F)F)ccc1-c1cc(CC(=O)O)ccc1OC)C(=O)OC ?
Result: 5.9

Query: Quick one: inhibition at 10 µM of COC(=O)N(Cc1ccccc1)Cc1cc(C(F)(F)F)ccc1-c1cc(CC(=O)O)ccc1OC ?
Result: 1.2
